Reference for the values: patent US12310975B2

- study.target: BCL6 (Homo sapiens (Human))
- test.details: Immunofluorescence high content imaging of BCL6 degradation in T47D cells
- Type: cell-based
- particulars: T47D cells
quantity.name: Dmax

Query the reported Dmax for BCL6 (Homo sapiens (Human)); item: CNC(=O)COc1cc2cc(Nc3nc(N4CCN(CC5(F)CCN(c6cccc7c6C(=O)N(C6CCC(=O)NC6=O)C7=O)CC5)CC4)ncc3Cl)ccc2n(C)c1=O (centres unmarked) [compound 341]
≥ 70%

Let us now turn to CNC(=O)COc1cc2cc(Nc3nc(N4CCC(CN5[C@H](C)CN(c6cccc(C(=O)NC7CCC(=O)NC7=O)c6F)C[C@@H]5C)CC4)ncc3Cl)ccc2n(C)c1=O (mixture of isomers) [compound 370]
50 to 70%

Let us now turn to CCn1c(=O)c(OCC(=O)NC)cc2cc(Nc3nc(N4CCC(CN5CCC(c6ccc7c(c6)C(=O)N(C6CCC(=O)NC6=O)C7=O)CC5)CC4)ncc3Cl)ccc21 (centres unmarked) [compound 364]
≥ 70%

Let us now turn to CNC(=O)COc1cc2cc(Nc3nc(N4CCN(CCC5CCN(c6ccc7c(c6)C(=O)N(C6CCC(=O)NC6=O)C7=O)CC5)CC4)ncc3Cl)ccc2n(C)c1=O (centres unmarked) [compound 322]
50 to 70%

Let us now turn to CNC(=O)COc1cc2cc(Nc3nc(N4CCC(OC5CC6(C5)CN(c5ccc7c(c5)C(=O)N(C5CCC(=O)NC5=O)C7=O)C6)CC4)ncc3Cl)ccc2n(C(C)C)c1=O (centres unmarked) [compound 362]
50 to 70%

Let us now turn to CCn1c(=O)c(OCC(=O)NC)cc2cc(Nc3nc(N4CCN([C@H]5C[C@H](COc6ccc7c(c6)C(=O)N(C6CCC(=O)NC6=O)C7=O)N(C)C5)CC4)ncc3Cl)ccc21 (some centres unmarked) [compound 371]
50 to 70%

Let us now turn to CNC(=O)COc1cc2cc(Nc3nc(N4CCC(OC5CC6(CCN(c7ccc8c(c7)CN(C7CCC(=O)NC7=O)C8=O)CC6)C5)CC4)ncc3Cl)ccc2n(C(C)C)c1=O (centres unmarked) [compound 431]
50 to 70%

Let us now turn to CNC(=O)COc1cc2cc(Nc3nc(N4CCC[C@H](COc5cccc6c5C(=O)N(C5CCC(=O)NC5=O)C6=O)C4)ncc3Cl)ccc2n(C2CCCCC2)c1=O (some centres unmarked) [compound 343]
50 to 70%

Let us now turn to CN1C(=O)CCc2cc(Nc3nc(N4CCN(CC5CCN(c6cccc7c6C(=O)N(C6CCC(=O)NC6=O)C7=O)CC5)CC4)ncc3Cl)ccc21 (centres unmarked) [compound 378]
< 50%

Let us now turn to CCCCn1c(=O)c(OCC(=O)NC)cc2cc(Nc3nc(N4CCN(CC5CCN(c6ccc7c(c6)C(=O)N(C6CCC(=O)NC6=O)C7=O)CC5)CC4)ncc3Cl)ccc21 (centres unmarked) [compound 317]
50 to 70%

Let us now turn to CCCC(C1CCN(c2ccc3c(c2)C(=O)N(C2CCC(=O)NC2=O)C3=O)CC1)N1CCN(c2ncc(Cl)c(Nc3ccc4c(c3)cc(OCC(=O)NC)c(=O)n4C)n2)CC1 (centres unmarked) [compound 338]
< 50%
